biological target: anti-CC49 variable region (anti-idiotypic) antibodies in the serum of patient four; test: HPLC size exclusion; 5 µg cold competitor + ^125I-HuCC49 + patient serum; less complex = more competition
Tag: MET if measured percent of complexes is not below 10%, NOT MET if it is.

BINDER	CLASS LABEL
HuCC49 CDR variant L-2 (antibody, V domains shown) VH: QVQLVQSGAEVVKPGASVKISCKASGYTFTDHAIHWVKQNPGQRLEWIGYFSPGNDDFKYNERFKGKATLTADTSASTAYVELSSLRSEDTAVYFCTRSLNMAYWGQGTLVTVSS VL: DIVMSQSPDSLAVSLGERVTLNCKSSQSLLYSGNQKNYLAWYQQKPGQSPKLLIYWASTRESGVPDRFSGSGSGTDFTLTISSVQAEDVAVYYCQQYYSYPLTFGAGTKLELK	NOT MET
HuCC49 CDR variant H-2 (antibody, V domains shown) VH: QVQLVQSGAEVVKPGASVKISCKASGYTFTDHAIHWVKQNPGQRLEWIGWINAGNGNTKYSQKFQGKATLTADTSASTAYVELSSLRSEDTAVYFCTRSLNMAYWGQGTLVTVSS VL: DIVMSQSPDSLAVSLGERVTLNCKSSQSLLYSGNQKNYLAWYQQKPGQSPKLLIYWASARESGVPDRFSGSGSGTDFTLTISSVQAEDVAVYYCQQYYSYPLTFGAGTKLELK	MET
HuCC49 CDR variant L-1,2 (antibody, V domains shown) VH: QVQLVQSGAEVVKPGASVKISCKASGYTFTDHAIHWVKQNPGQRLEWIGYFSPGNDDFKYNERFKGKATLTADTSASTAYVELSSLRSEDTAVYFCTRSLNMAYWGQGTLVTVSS VL: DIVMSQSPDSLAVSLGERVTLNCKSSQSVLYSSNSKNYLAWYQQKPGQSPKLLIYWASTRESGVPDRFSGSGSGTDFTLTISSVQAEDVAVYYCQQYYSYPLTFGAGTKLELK	MET
HuCC49 CDR variant L-3 (antibody, V domains shown) VH: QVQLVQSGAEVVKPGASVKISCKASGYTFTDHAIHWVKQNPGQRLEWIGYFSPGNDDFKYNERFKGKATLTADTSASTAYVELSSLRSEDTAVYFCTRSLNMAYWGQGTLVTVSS VL: DIVMSQSPDSLAVSLGERVTLNCKSSQSLLYSGNQKNYLAWYQQKPGQSPKLLIYWASARESGVPDRFSGSGSGTDFTLTISSVQAEDVAVYYCQQYYSTPYSFGAGTKLELK	MET
